- Test system: Streptococcus pneniae (IID 554)
- TEST: In vitro anti-bacterial activity (MIC90), Gram-positive bacteria
- Format: cell-based
- MEASUREMENT SETUP: IID554, Gram-positive reference strain
# MIC90 annotations
PARAMETER MEASURED: MIC90

{"COMPOUND": "CC1COc2c(N3CCN(C)CC3)c(F)cc3c(=O)c(C(=O)O)cn1c23 (stereo not shown)", "VALUE MEASURED": "1.56 mg/L"}
{"COMPOUND": "CC1CCc2c(N3CCC(O)CC3)c(F)cc3c(=O)c(C(=O)O)cn1c23 (stereo not shown)", "VALUE MEASURED": "0.78 mg/L"}
{"COMPOUND": "C[C@@H]1CN(c2c(F)c(N)c3c(=O)c(C(=O)O)cn(C4CC4)c3c2F)C[C@H](C)N1", "VALUE MEASURED": "0.39 mg/L"}
{"COMPOUND": "N[C@@H]1CCCCN(c2c(F)cc3c(=O)c(C(=O)O)cn(C4CC4)c3c2Cl)C1", "VALUE MEASURED": "0.2 mg/L"}
